TEST: Stability of the compound assessed as compound degradation in 0.1 M NaOH solution at 60 degC in EtOH solution after 96 hrs by HPLC analysis
Type: physicochemical
EXPERIMENTAL_CONDITIONS: 0.1 M NaOH solution in EtOH solution; read-out: Drug degradation
EXPERIMENTAL_ENDPOINT: degraded at 96 h (%)
Give bare numbers, in %.

Inquiry: Give degraded at 96 h for CC(C)=CCC/C(C)=C/CC/C(C)=C/COc1ccc2ccc(=O)oc2c1
Reply text: 85

----------
TEST: Photostability of the compound assessed as parent compound remaining under sunlight exposed for 6 days in EtOH solution measured in presence of UV-A filter DHHB by TLC method
Type: physicochemical
EXPERIMENTAL_CONDITIONS: read-out: Stability
EXPERIMENTAL_ENDPOINT: remaining at 144 h
Write the numeric value and append its unit.

Inquiry: Give remaining at 144 h for CC(C)=CCC/C(C)=C/CC/C(C)=C/COc1ccc2ccc(=O)oc2c1
Reply text: 98%
